All figures here come from patent US20250027068.

Biological target: pooled human IgG
Experimental Readout: Enzyme Activity Endpoint Assay (purified): scIgG (ng/µL)

Protein	Endpoint Value
IdeZ2 (protein) EVVEVWPYGQNPNGKTEILSQTEDSESLQRLRDIEDFQAEKKMQNVVYTKWLDGVDVKDHDFRKIVDGNIAYYATPLLNGRGFYDINKDFNRDSDKCAAAVAANMFHYWLDINRDNVDRFLRQNPEKHGIIELPDGQLKLSDFLNTYESDHGYRDKSKLFDFISNNFNGPVWTDKLLDNYINGYAYNYKYGRTIEDPTKNTSKINFFKEVFNEKILTNNHSIRNQNEFSVLLSEALYTGKAIGLSYGPAGLRHSLGHIISVWGADLDADGNVVAIYVTDSDDKKLTIGDERVGLKRYKISTDDENRLRLTAYEETHNTGGQIRGLWTLDTGKYAWADYFDKTEQTGTDQAEQ	0
PRT-241 (protein) MVTSVWTKGVTPPANFTQGEDVFHAPYVANQGWYDITKTFNGKDDLLCGAATAGNMLHWWFDQNKDQIKRYLEEHPEKQKINFNGEQMFDVKEAIDTKNHQLDSKLFEYFKEKAFPNLSTKHLGVFPDHVIDMFINGYRLSLLNHGPTPVKEGSKDPRGGIFDAVFTRGDQSKLLTSRHDFKEKNLKEISDLIKKELTEGKALGLSHTYANVRINHVINLWGADFDSNGNLKAIYVTDSDSNASIGMKKYFVGVNSSGKVAISAKEIKEDNIGAQVLGLFTLSTGQDSWNQTN	0
